Where these numbers come from: the supplement of paper PMC10307832

- System: NCI-H1993
- ASSAY OVERVIEW: relative viability (nuclei count vs DMSO), 5 days (fraction); higher = more cells survive
- TEST PARAMETERS: first compound 0.5 µM
For each record, write down the corresponding relative viability.
Keep it simple and answer with nothing but the number.

Task: Could you share which relative viability value was measured for CC1(C)CCC(c2ccc(Cl)cc2)=C(CN2CCN(c3ccc(C(=O)NS(=O)(=O)c4ccc(N[C@H](CCN5CCOCC5)CSc5ccccc5)c(S(=O)(=O)C(F)(F)F)c4)cc3)CC2)C1 [Navitoclax] + N=C(N)NC(=N)NCCc1ccccc1 [Phenformin] (partner 250 µM) ?
Output: 0.616

Task: Could you share which relative viability value was measured for CC1(C)CCC(c2ccc(Cl)cc2)=C(CN2CCN(c3ccc(C(=O)NS(=O)(=O)c4ccc(N[C@H](CCN5CCOCC5)CSc5ccccc5)c(S(=O)(=O)C(F)(F)F)c4)cc3)CC2)C1 [Navitoclax] + CC(=O)Nc1cccc(-n2c(=O)n(C3CC3)c(=O)c3c(Nc4ccc(I)cc4F)n(C)c(=O)c(C)c32)c1 [Trametinib] (partner 0.02 µM) ?
Output: 0.642

Task: Could you share which relative viability value was measured for CC1(C)CCC(c2ccc(Cl)cc2)=C(CN2CCN(c3ccc(C(=O)NS(=O)(=O)c4ccc(N[C@H](CCN5CCOCC5)CSc5ccccc5)c(S(=O)(=O)C(F)(F)F)c4)cc3)CC2)C1 [Navitoclax] + Cc1nc(Nc2ncc(C(=O)Nc3c(C)cccc3Cl)s2)cc(N2CCN(CCO)CC2)n1 [Dasatinib] (partner 0.075 µM) ?
Output: 0.643

====

- Test system: COR-L23
- ASSAY OVERVIEW: relative viability (nuclei count vs DMSO), 5 days (fraction); higher = more cells survive
- TEST PARAMETERS: first compound 0.8 µM
For each record, write down the corresponding relative viability.
Keep it simple and answer with nothing but the number.

Task: Could you share which relative viability value was measured for C=C1C(=O)O[C@@H](CCCCCCCC)[C@@H]1C(=O)O [C-75] + Cc1nc(Nc2ncc(C(=O)Nc3c(C)cccc3Cl)s2)cc(N2CCN(CCO)CC2)n1 [Dasatinib] (partner 0.075 µM) ?
Output: 0.489

Task: Could you share which relative viability value was measured for Oc1nc(-c2ccc(C(F)(F)F)cc2)nc2c1CSCC2 [XAV939] + N=C(N)NC(=N)NCCc1ccccc1 [Phenformin] (partner 250 µM) ?
Output: 0.466

Task: Could you share which relative viability value was measured for C=C1C(=O)O[C@@H](CCCCCCCC)[C@@H]1C(=O)O [C-75] + Cc1nc(NC(=O)N2CCC[C@H]2C(N)=O)sc1-c1ccnc(C(C)(C)C(F)(F)F)c1 [Alpelisib] (partner 2 µM) ?
Output: 0.753

Task: Could you share which relative viability value was measured for C=C1C(=O)O[C@@H](CCCCCCCC)[C@@H]1C(=O)O [C-75] + CS(=O)(=O)N1CCN(Cc2cc3nc(-c4cccc5[nH]ncc45)nc(N4CCOCC4)c3s2)CC1 [Pictilisib] (partner 1 µM) ?
Output: 0.78

Task: Could you share which relative viability value was measured for Oc1nc(-c2ccc(C(F)(F)F)cc2)nc2c1CSCC2 [XAV939] + Cc1cc(Nc2cc(N3CCN(C)CC3)nc(Sc3ccc(NC(=O)C4CC4)cc3)n2)n[nH]1 [Tozasertib] (partner 0.1 µM) ?
Output: 0.225
